B1: glmS ribozyme (parent)
chain: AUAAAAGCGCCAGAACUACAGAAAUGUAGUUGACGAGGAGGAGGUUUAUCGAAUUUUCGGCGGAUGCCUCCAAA

- Variants of: B1
- Measurement Protocol: self-cleavage kobs at 10000 uM GlcN6P; higher = faster cleavage; RNA array
- Experimental Setup: with glucosamine-6-phosphate
Fewer inactive variants are shown than the library holds.
Listed here are variants together with their documented self-cleavage kobs at 10000 uM GlcN6P.
Unit s⁻¹ implied. Number only.

Some entries whose results are on file:
>>> reported_measurement("A52G U56G")
0.0014
>>> reported_measurement("A48G C70A")
"4.22e-05"
>>> reported_measurement("C16U C50G G62A C67G")
"9.28e-05"
>>> reported_measurement("C8U C10U C50A C67G")
0.000228
>>> reported_measurement("G38U G59A C68G")
"4.84e-05"

Reported self-cleavage kobs at 10000 uM GlcN6P ( A6G A53C U54A ) = 4.91e-05
